Recorded values, source patent US11839212B2.

# Test system: Botrytis cinerea
# protocol: Synergistic Growth Inhibition Assay (MIC and FIC index, 96-well, resazurin)
# Format: cell-based
# stated.conditions: Botrytis cinerea, 48 h, Table 59; Compound B alone; 48 hours incubation; read-out: MIC (B)
# Method: In some embodiments, the synergistic action between the pesticidal active ingredient, and the at least one C6-C10 (or alternatively C11 or C12) saturated or unsaturated aliphatic acid components of the pesticidal compositions according to embodiments of the present disclosure was tested using a Synergistic Growth Inhibition Assay, which is derived from and related to a checkerboard assay as is known in the art for testing of combinations of antimicrobial agents. […]
metric: MIC (µg/mL)

Recorded MIC (compound CC(O)CC(=O)O (stereo not drawn) [3-Hydroxybutyric acid, 3-hydroxybutyric acid] ): 5000

P: CCCCCCCCC(O)C(=O)O (stereo not drawn) [2-Hydroxydecanoic acid]
Q: CCCCCC(O)CC(=O)O (stereo not drawn) [3-Hydroxyoctanoic acid]
For this pair, P and Q , which shows a numerically higher MIC? Respond using the label that marks the chosen record.
Q
